System: Ruminococcus gnavus DSM 108212
Assay: fold change of 2-Phenylethylamine concentration vs plate DMSO controls (fold change (ratio)); higher = more amine produced, active = hit call of the paper (significant change in both replicates, either direction)
Settings: incubation time: 27 h, anaerobic, 37 °C
Structures can show the parent of a compound that is named as a salt.
Would you please tag the item satisfied when its fold change of 2-Phenylethylamine concentration is 1 or above, and not satisfied when it is below?

| Compound | Label Value |
| --- | --- |
| COc1cc(-c2ccc(=O)[nH]n2)ccc1OC(F)F [Zardaverine] (20 µM) | not satisfied |
| CC(C)NCC(O)c1cc(O)cc(O)c1 (stereo unspecified) [Metaproterenol sulfate] (20 µM) | not satisfied |
| C[N+]1(C)CCC(=C(c2ccccc2)c2ccccc2)CC1 [Diphemanil methylsulfate] (20 µM) | satisfied |
| C[C@H]1[C@@H](O)O[C@@H]2O[C@@]3(C)CC[C@H]4[C@H](C)CC[C@@H]1[C@@]24OO3 [Artenimol] (20 µM) | not satisfied |
| CC(=O)c1ccc2c(c1)N(CCCN1CCC(CCO)CC1)c1ccccc1S2 [Piperacetazine] (20 µM) | satisfied |
| CC1(C)S[C@@H]2[C@H](NC(=O)[C@H](N)c3ccccc3)C(=O)N2[C@H]1C(=O)OC1OC(=O)c2ccccc21 (stereo partly specified) [Talampicillin hydrochloride] (20 µM) | not satisfied |
| CN1CCCN=C1/C=C/c1cccc(O)c1 [Oxantel pamoate] (20 µM) | satisfied |
| CCOc1nc2cccc(C(=O)OCc3oc(=O)oc3C)c2n1Cc1ccc(-c2ccccc2-c2noc(=O)[nH]2)cc1 [Azilsartan medoxomil] (20 µM) | satisfied |
| COc1cc2/c(=N/c3ccc(Br)cc3F)nc[nH]c2cc1OCC1CCN(C)CC1 [Vandetanib] (20 µM) | satisfied |
| NC(N)=Nc1nc(CSCCN/C=N/S(=O)(=O)c2ccc(Br)cc2)cs1 [Ebrotidine] (20 µM) | not satisfied |
| CC(=O)Oc1ccccc1C(=O)O [Acetylsalicylic acid] (20 µM) | satisfied |
| CC1=C(C)C(=O)C(C(CCCCCC(=O)O)c2ccccc2)=C(C)C1=O (stereo unspecified) [Seratrodast] (20 µM) | not satisfied |

Reference source: the supplement of paper PMC12494721
